System: PAD
Experiment: qHTS profiling for inhibitors of Plasmodium falciparum proliferation (AID 504749); further: nearly all actives have a fitted effect of over 60% in size
Conditions: P. falciparum in erythrocytes, SYBR Green DNA, 72 h; series mostly up to 12.8 µM
Results filed as inconclusive are left out. Calls of active or inactive are those of the source. The call rests on the fitted dose curve; in most records, active means well fitted inhibition curve with a large enough effect; inconclusive means small, poorly fitted or top-dose-only effect; inactive means flat fitted curve, though single readings scatter.
Write down one outcome, taken from active, inactive

[
  {
    "Compound": "CCN[C@@H]1CN(CCCOC)S(=O)(=O)c2sc(S(N)(=O)=O)cc21",
    "Group Label": "inactive"
  },
  {
    "Compound": "C[N+]12CCC(CC1)[C@@H](OC(=O)C(O)(c1ccccc1)c1ccccc1)C2",
    "Group Label": "inactive"
  },
  {
    "Compound": "CC1CCC(C(C)C)C(=O)C1 (configuration not stated)",
    "Group Label": "inactive"
  }
]

Continue with the compound presented below.
Q: What was the test verdict on CCC(=O)O[C@@]1(C(=O)CCl)C(C)CC2C3CCC4=CC(=O)C=C[C@@]4(C)[C@]3(F)C(O)C[C@]21C (some centres not stated) ?
Result: active
